Tested on: MDA-N
method_description: NCI tumour cell line growth inhibition, 48 h
The source made the active and inactive calls. Rule as the data show it: active = GI50 up to about 1.1 µM and inactive = higher.
test_readout: GI50

Solved cases (6 shown):
# molecule, target, GI50
data = [
    ("COc1ccc2c(c1)C1Oc3ccccc3CC1(O)CO2 (stereo unspecified)", "MDA-N", "> 100 µM (inactive)"),
    ("C[C@@H]1C(O)CC[C@H](C)C12CC=CC2=O (stereo partly specified)", "MDA-N", "> 100 µM (inactive)"),
    ("COc1cc2oc(-c3ccc(O)cc3O)c(CC=C(C)C)c(=O)c2c(O)c1/C=C/C(C)C", "MDA-N", "2.79 µM (inactive)"),
    ("COc1ccc(C2c3cc4c(cc3OC3(OC)COC(=O)C23)OCO4)c(OC)c1 (stereo unspecified)", "MDA-N", "1.77 µM (inactive)"),
    ("Cc1c(C)c(S(=O)(=O)N(CCCN)OCCCN)c(C)c2c1OC(C)(C)CC2", "MDA-N", "15.8 µM (inactive)"),
    ("CC(C)NC(=O)OCCN=C1c2ccccc2C(Br)C(Br)c2ccccc21 (stereo unspecified)", "MDA-N", "5.85 µM (inactive)"),
]

Could you report GI50 for every entry in the following list?
1. Cc1ccc(S(=O)(=O)NCCCSCCO)cc1
2. O=C(O)CCCNc1ncc2c(n1)-c1ccccc1OC2
3. C=C(Cl)CN1c2ccccc2C=Cc2ccccc21
4. CCCC(=O)NC(Nc1ccc(S(=O)(=O)Nc2ccc(OC)nn2)cc1)(C(F)(F)F)C(F)(F)F
5. O=C(O)c1cccc(OCCOc2cccc(C(=O)O)c2[N+](=O)[O-])c1[N+](=O)[O-]

[A]
1. 55 µM (inactive)
2. > 100 µM (inactive)
3. 15 µM (inactive)
4. > 100 µM (inactive)
5. > 100 µM (inactive)
